Reference source for all entries: patent US20100136009A1

# Target of assay: T1, Ovr110 (amino acids 1-282; Ovr110 Construct 1 without the 6-His tag) expressed on transiently transfected … (human, UniProt Q7Z7D3 25-282)
# T1 construct: signal peptide not removed here
# T1 sequence: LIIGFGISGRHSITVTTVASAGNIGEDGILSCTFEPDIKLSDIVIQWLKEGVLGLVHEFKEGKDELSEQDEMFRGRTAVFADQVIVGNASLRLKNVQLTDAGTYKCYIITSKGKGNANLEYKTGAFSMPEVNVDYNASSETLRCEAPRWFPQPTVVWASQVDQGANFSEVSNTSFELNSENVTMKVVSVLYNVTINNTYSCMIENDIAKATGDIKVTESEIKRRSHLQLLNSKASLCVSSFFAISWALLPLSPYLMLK
# Assay info: flow cytometry; purified MAb; Ovr110-transfected 293F cells
Metric name: % Cells Positive (%)
Write it as a number; the unit % goes unstated.

# example entries with known answers
{"Binder": "Ovr110.Q11 (antibody, V domains shown, Mouse hybridoma MAb; also called Q11.12.3; Ovr110.Q11.12.3) VH: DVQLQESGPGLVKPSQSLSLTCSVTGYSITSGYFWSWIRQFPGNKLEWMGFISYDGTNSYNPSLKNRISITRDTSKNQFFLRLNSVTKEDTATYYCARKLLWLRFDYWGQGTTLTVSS VL: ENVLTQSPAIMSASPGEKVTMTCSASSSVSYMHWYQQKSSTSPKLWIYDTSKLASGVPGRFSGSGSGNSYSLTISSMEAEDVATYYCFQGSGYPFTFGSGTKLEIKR", "Metric name": "% Cells Positive", "Units symbol": "%", "Reported measurement": 93.8}
{"Binder": "Ovr110.Q19 (antibody, IgG1, V domains shown, Mouse hybridoma MAb; also called Q19.6; Ovr110.Q19.6) VH: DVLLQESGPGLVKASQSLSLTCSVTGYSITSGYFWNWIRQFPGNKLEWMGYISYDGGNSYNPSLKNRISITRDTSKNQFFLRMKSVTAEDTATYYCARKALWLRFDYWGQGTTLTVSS VL: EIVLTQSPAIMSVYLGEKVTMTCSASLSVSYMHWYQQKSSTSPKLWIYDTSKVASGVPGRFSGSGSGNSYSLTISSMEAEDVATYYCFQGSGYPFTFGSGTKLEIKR", "Metric name": "% Cells Positive", "Units symbol": "%", "Reported measurement": 91.9}

Entry under test: Ovr110.Q27 (antibody, IgG1, V domains shown, Mouse hybridoma MAb; also called Q27.4; Q27.2) VH: QVQPQQSGAELARPGASVKLSCKASGYTFTTYWMQWVKQRPGQGLEWIGAIYPGDGDTRYTQKFKGKATLTADKSSSTAYMQLSSLASEDSAVYYCAINWGYAMDYWGQGTSVTVSS VL: DIVLTQSHKIMSTSVGDRVSITCKASQDVRTAVAWYQQKPGQSPKLLIKSASYRYTGVPDRFSGSGSGTDFTFTISSVQAEDLAVYYCQQHYSNPTFGGGTKLEIKR . Its % Cells Positive was 95.2
